Tested on: NOMO1
protocol-summary: cell viability relative to DMSO control; higher = less cytotoxic
test-parameters: RPMI 5 mM glucose + 10% FBS; 48 h; 1.71 µM
Reported cell viability values for a set of molecules
observation-type: cell viability (%)

[
  {
    "molecule": "c1ccc(CNc2nc(N3CCOc4ccccc43)nc3c2CCCC3)cc1",
    "result": 107
  },
  {
    "molecule": "C[C@]12CC[C@H]3[C@@H](CCC/4=C/C(=O)CC[C@]34C)[C@@H]1CC[C@@H]2O",
    "result": 134
  },
  {
    "molecule": "CCOC(=O)c1cncn1[C@H](C)c1ccccc1",
    "result": 127
  },
  {
    "molecule": "COc1ccc2[nH]c([S+]([O-])Cc3ncc(C)c(OC)c3C)nc2c1 (stereo unspecified)",
    "result": 100
  },
  {
    "molecule": "C[C@H]1[C@@H](C(=O)C[C@H]2O[C@@H]3O[C@]4(C)CC[C@H]5[C@H](C)CC[C@@H]([C@H]2C)[C@@]35OO4)O[C@@H]2O[C@]3(C)CC[C@H]4[C@H](C)CC[C@@H]1[C@@]24OO3",
    "result": 109
  },
  {
    "molecule": "COC1=CC=CC(=C1N)\\C2=C\\C(=O)C3=C(O2)C=CC=C3",
    "result": 124
  },
  {
    "molecule": "COc1cccc([C@@H](C)NCCCc2ccccc2Cl)c1",
    "result": 86.1
  },
  {
    "molecule": "CC[C@@]1(O)C(=O)OCC/2=C1/C=C3\\N(CC4=CC5=CC(=CC=C5N=C34)O)C2=O",
    "result": 22.6
  },
  {
    "molecule": "CN1CCCC(CC1)N2\\N=C(CC3=CC=C(Cl)C=C3)/C4=C(C=CC=C4)C2=O (stereo unspecified)",
    "result": 114
  },
  {
    "molecule": "C=CCc1cccc(/C=N/NC(=O)CN2CCN(Cc3ccccc3)CC2)c1O",
    "result": 100
  },
  {
    "molecule": "Cn1c(=O)n(-c2ccc(C(C)(C)C#N)cc2)c2c3cc(-c4cnc5ccccc5c4)ccc3ncc21",
    "result": 52.4
  },
  {
    "molecule": "O=C1Nc2ccc(I)cc2/C1=C/c1cc(Br)c(O)c(Br)c1",
    "result": 97.6
  },
  {
    "molecule": "COc1ncnc(N[S+](=O)([O-])c2ccc(N)cc2)c1OC",
    "result": 106
  },
  {
    "molecule": "CN(C)c1nc(Cc2ccc(NC(=O)c3ccc4ccccc4c3)cc2)nc(Cl)c1CC(=O)O",
    "result": 74.3
  },
  {
    "molecule": "CC1(C)CNc2cc(NC(=O)c3cccnc3NCc3ccncc3)ccc21",
    "result": 120
  },
  {
    "molecule": "Cc1cc(C(=O)N2CCN(c3cccc(Cl)c3)CC2)n(-c2ccccc2)n1",
    "result": 92.2
  },
  {
    "molecule": "Nc1nnc(-c2cccc(Cl)c2Cl)c(N)n1",
    "result": 96.1
  },
  {
    "molecule": "COCCOc1nc(-c2ccc(Cl)c(Cl)c2)n(-c2ccc(NC(=O)CCl)cc2)n1",
    "result": 84.9
  },
  {
    "molecule": "NC(=O)c1cccc2cn(-c3ccc([C@@H]4CCCNC4)cc3)nc12",
    "result": 106
  },
  {
    "molecule": "C=CC(=O)Nc1cccc(Nc2nc(NC3CCC(N(C)C)CC3)nc3c2ncn3C(C)C)c1 (stereo unspecified)",
    "result": 98.2
  },
  {
    "molecule": "CN[C@@H](C)C(=O)N[C@H]1CN(C(=O)CC(C)C)CC[C@H]2CC[C@@H](C(=O)NC(c3ccccc3)c3ccccc3)N2C1=O",
    "result": 37
  },
  {
    "molecule": "CC(C)c1cc(C(=O)N2Cc3ccc(CN4CCN(C)CC4)cc3C2)c(O)cc1O",
    "result": 21.3
  },
  {
    "molecule": "C[C@@H](NC(=O)c1ncnc(N)c1Cl)c1ncc(C(=O)Nc2cc(C(F)(F)F)c(Cl)cn2)s1",
    "result": 127
  },
  {
    "molecule": "Cn1cc(/C=C2\\C(=O)Nc3cccnc32)c2ccccc21",
    "result": 142
  },
  {
    "molecule": "Cc1csc(NC(=O)c2sc3nc4c(c(C(F)(F)F)c3c2N)CCC4)n1",
    "result": 88.1
  },
  {
    "molecule": "NC/1=N/C(=O)N(/C=C1F)[C@H]2CS[C@H](CO)O2",
    "result": 139
  },
  {
    "molecule": "CC(C)c1ccc(Cn2ccc3c4c(N)nc(NC5CC5)nc4ccc32)cc1",
    "result": 113
  },
  {
    "molecule": "N#Cc1ccnc(Nc2cc(C3CCN(C4COC4)CC3)cc(N3CCC(F)(F)C3)n2)c1",
    "result": 102
  },
  {
    "molecule": "CC1=C(CC(=O)O)c2cc(F)ccc2/C1=C\\c1ccc([S+](C)[O-])cc1 (stereo unspecified)",
    "result": 113
  },
  {
    "molecule": "O=C(Cc1ccc(-c2ccc(OCCN3CCOCC3)cc2)cn1)NCc1ccccc1",
    "result": 34.1
  },
  {
    "molecule": "NCCCCNCCCN",
    "result": 99.1
  },
  {
    "molecule": "O=C(Nc1ncc(SCCN2CCCC2)s1)[C@]1(c2ccc([S+](=O)([O-])C3CC3)cc2)C[C@H]1C1CCCCC1",
    "result": 128
  },
  {
    "molecule": "Cc1cnc(C(=O)O)c[n+]1[O-]",
    "result": 118
  },
  {
    "molecule": "O=C(Oc1ccc([N+](=O)[O-])cc1)N1CCC(C(O)(c2ccc3c(c2)OCO3)c2ccc3c(c2)OCO3)CC1",
    "result": 86.3
  },
  {
    "molecule": "COc1ccc([C@@H]2CC(=O)c3c(O)cc(O[C@@H]4O[C@H](CO[C@@H]5O[C@@H](C)[C@H](O)[C@@H](O)[C@H]5O)[C@@H](O)[C@H](O)[C@H]4O)cc3O2)cc1O",
    "result": 102
  },
  {
    "molecule": "COC/1=C/C=C2\\C(=C/C1=O)[C@H](CCC3=CC(=C(OC)C(=C23)OC)OC)NC(C)=O",
    "result": 7.99
  }
]

These data points were gathered from the supplement of paper PMC11451515.
